Reference source for all entries: ChEMBL document CHEMBL4725241

# TARGET: fMet-Leu-Phe receptor (Homo sapiens)
# Sequence (P21462 whole entry): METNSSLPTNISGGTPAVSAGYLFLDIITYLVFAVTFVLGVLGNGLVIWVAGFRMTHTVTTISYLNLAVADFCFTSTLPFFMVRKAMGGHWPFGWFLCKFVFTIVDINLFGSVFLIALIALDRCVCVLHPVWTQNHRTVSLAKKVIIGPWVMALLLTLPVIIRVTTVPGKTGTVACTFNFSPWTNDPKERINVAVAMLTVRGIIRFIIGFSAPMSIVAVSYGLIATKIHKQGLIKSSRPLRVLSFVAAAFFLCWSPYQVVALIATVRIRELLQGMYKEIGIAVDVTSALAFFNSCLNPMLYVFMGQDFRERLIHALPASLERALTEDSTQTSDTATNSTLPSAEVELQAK
# EXPERIMENT_DESCRIPTION: Agonist activity at human FPR1 expressed in HEK 293 cells co-expressing Galpha15 measured every 1.5 sec for 80 sec by Fluo-4 NW staining based scanning fluorometric method
# Type: cell-based, HEK293
MEASURE_NAME: pEC50
Note on units: pEC50 is unitless, being -log10 of a concentration expressed in mol/L.

Some compounds with known pEC50 results, for comparison:
COc1cc(F)c([C@@H]2CNC(=O)[C@H]2NC(=O)Nc2ccc(Cl)cc2)c(F)c1; 6.92
COc1cc(F)c([C@@H]2CNC(=O)[C@H]2NC(=O)Nc2ccc(F)c(F)c2)c(F)c1; 6.09
COc1cc(F)c([C@@H]2CNC(=O)[C@H]2NC(=O)Nc2ccc(Br)cc2)c(F)c1; 7.02
COc1cc(F)c([C@@H]2CNC(=O)[C@H]2NC(=O)Nc2ccc(F)cc2)c(F)c1; 6.55
COc1cnc([C@@H]2CNC(=O)[C@H]2NC(=O)Nc2ccc(F)cc2)c(F)c1; 6.72
COc1cc(F)c([C@@H]2CNC(=O)[C@H]2NC(=O)Nc2cccc(F)c2)c(F)c1; 5.77

Request: Any idea what pEC50 came out for COc1cc(F)c([C@@H]2CNC(=O)[C@H]2NC(=O)Nc2cc3ccccc3s2)c(F)c1 on fMet-Leu-Phe receptor (Homo sapiens)?
Result: 5.52

Request: # iterate: COc1cc(F)c([C@@H]2CNC(=O)[C@H]2NC(=O)Nc2ccc(C#N)cc2)c(F)c1
Result: 6.46

Request: COc1cc(F)c([C@@H]2CNC(=O)[C@H]2NC(=O)Nc2ccc(F)cc2)cc1F , same question.
Result: 7.77

Request: Could you do the same for COc1cc(F)c([C@@H]2CNC(=O)[C@H]2NC(=O)Nc2cc(C)ns2)c(F)c1 , please?
Result: 6.54

Request: Would you mind doing N#Cc1cc(F)c([C@@H]2CNC(=O)[C@H]2NC(=O)Nc2ccc(F)cc2)c(F)c1 as well?
Result: 4.40

###

# EXPERIMENT_DESCRIPTION: AUC (0 to infinity) in BALB/cCrSlc mouse at 1 mg/kg, po by LC-MS/MS analysis
# Format: ADME, organism-based
# Design: time infinity, route oral, dose 1 mg/kg
# TEST_PARAMETERS: in vivo
MEASURE_NAME: AUC(0-inf) (µM·h)
Write it as a number; the unit µM·h goes unstated.

Request: Given the compound COc1cc(F)c([C@@H]2CNC(=O)[C@H]2NC(=O)Nc2ccccc2)c(F)c1 , what is its reported AUC(0-inf)?
Result: 0.12

###

# EXPERIMENT_DESCRIPTION: Volume of distribution at steady state in cynomolgus monkey at 1 mg/kg, iv by LC-MS/MS analysis
# Type: ADME, organism-based, Macaca fascicularis
# TEST_PARAMETERS: in vivo, read-out: Vdss
MEASURE_NAME: Vd (L/kg)
Answer with a number only, understood to be in L/kg.

Request: Item under review: COc1cc(F)c([C@@H]2CNC(=O)[C@H]2NC(=O)Nc2ccccc2)c(F)c1 . Reported Vd?
Result: 1.2

###

# EXPERIMENT_DESCRIPTION: Volume of distribution at steady state in Beagle dog at 1 mg/kg, iv by LC-MS/MS analysis
# Assay type: ADME, organism-based, Canis lupus familiaris
# TEST_PARAMETERS: in vivo, read-out: Vdss
MEASURE_NAME: Vd (L/kg)
Expressed in L/kg, but write only the number.

Request: If you can, please state the reported Vd value of COc1cc(F)c([C@@H]2CNC(=O)[C@H]2NC(=O)Nc2ccccc2)c(F)c1 .
Result: 0.98

###

# TARGET: UniProt:P21462
# EXPERIMENT_DESCRIPTION: Agonist activity at human FPR1 expressed in CHO cells assessed as reduction cAMP accumulation incubated for 1 hr by TR-FRET assay
# Assay type: functional, cell-based
MEASURE_NAME: pEC50
Bear in mind: pEC50 is minus log10 of a mol/L concentration; give just that figure.

Request: Name the recorded pEC50 for COc1cc(F)c([C@@H]2CNC(=O)[C@H]2NC(=O)Nc2ccccc2)c(F)c1 .
Result: 6.40

###

# TARGET: N-formyl peptide receptor 2 (Homo sapiens, UniProt P25090)
# Sequence (P25090 whole entry): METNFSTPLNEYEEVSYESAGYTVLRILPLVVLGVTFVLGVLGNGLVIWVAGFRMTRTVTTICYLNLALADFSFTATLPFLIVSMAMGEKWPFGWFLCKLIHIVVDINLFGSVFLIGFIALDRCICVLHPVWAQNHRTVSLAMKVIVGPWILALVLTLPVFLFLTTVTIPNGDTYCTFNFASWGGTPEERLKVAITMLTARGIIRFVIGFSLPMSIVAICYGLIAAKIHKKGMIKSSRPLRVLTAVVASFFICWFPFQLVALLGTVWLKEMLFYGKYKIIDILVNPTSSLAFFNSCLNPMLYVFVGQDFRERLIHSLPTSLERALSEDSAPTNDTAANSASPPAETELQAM
# EXPERIMENT_DESCRIPTION: Agonist activity at human FPR2 expressed in CHO-K1 cells assessed as stimulation of beta-arrestin recruitment
# Format: cell-based
MEASURE_NAME: EC50
Kindly write the number and append the unit.

Request: Recorded EC50 for COc1cc(F)c([C@@H]2CNC(=O)[C@H]2NC(=O)Nc2ccccc2)c(F)c1 [BMS-986235] , please?
Result: 130 nM

###

# EXPERIMENT_DESCRIPTION: Half life in cynomolgus monkey at 3 mg/kg, po by LC-MS/MS analysis
# Assay type: ADME, organism-based, Macaca fascicularis
# TEST_PARAMETERS: in vivo
MEASURE_NAME: half-life (h)
Give a bare numeral; the unit h is implied.

Request: For COc1cc(F)c([C@@H]2CNC(=O)[C@H]2NC(=O)Nc2ccccc2)c(F)c1 , what is its reported half-life?
Result: 5

###

# EXPERIMENT_DESCRIPTION: Cmax in Beagle dog at 1 mg/kg, po by LC-MS/MS analysis
# Type: ADME, organism-based, Canis lupus familiaris
# Design: route oral, dose 1 mg/kg
# TEST_PARAMETERS: in vivo
MEASURE_NAME: Cmax (nM)
Number only, in nM; omit the unit.

Request: Need Cmax of COc1cc(F)c([C@@H]2CNC(=O)[C@H]2NC(=O)Nc2ccccc2)c(F)c1 , thanks.
Result: 820

###

# EXPERIMENT_DESCRIPTION: Clearance in dog hepatocytes at 0.1 umol/l and measured for 6 hrs by LC-MS/MS analysis
# Assay type: ADME, cell-based, Canis lupus familiaris, Hepatocyte
# TEST_PARAMETERS: dose 0.1 µmol/L, read-out: CLH
MEASURE_NAME: CLint scaled at 0.1 µM (mL/min/kg)
Kindly answer with a numeric value in mL/min/kg, unit omitted.

Request: Look up CLint scaled at 0.1 µM for this molecule: COc1cc(F)c([C@@H]2CNC(=O)[C@H]2NC(=O)Nc2ccccc2)c(F)c1
Result: 50

###

# TARGET: UniProtKB P33766
# Sequence (P33766 whole entry): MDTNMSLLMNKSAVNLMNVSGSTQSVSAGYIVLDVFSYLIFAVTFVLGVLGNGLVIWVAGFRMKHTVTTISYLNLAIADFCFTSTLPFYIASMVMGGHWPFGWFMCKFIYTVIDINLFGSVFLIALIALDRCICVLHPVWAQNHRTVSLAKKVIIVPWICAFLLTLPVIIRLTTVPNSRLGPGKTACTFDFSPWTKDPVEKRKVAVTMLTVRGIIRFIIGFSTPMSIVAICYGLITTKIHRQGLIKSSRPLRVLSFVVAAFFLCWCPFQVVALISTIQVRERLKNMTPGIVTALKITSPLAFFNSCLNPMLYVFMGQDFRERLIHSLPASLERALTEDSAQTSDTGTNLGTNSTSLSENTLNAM
# EXPERIMENT_DESCRIPTION: Agonist activity at mouse FPR1 expressed in CHO cells assessed as reduction cAMP accumulation incubated for 1 hr by TR-FRET assay
MEASURE_NAME: pEC50
# pEC50: negative log10 of molar concentration; output just the value

Request: Please give the measured pEC50 for this compound: COc1cc(F)c([C@@H]2CNC(=O)[C@H]2NC(=O)Nc2ccccc2)c(F)c1
Result: 6.30

###

# TARGET: UniProtKB O88536
# Sequence (O88536 whole entry): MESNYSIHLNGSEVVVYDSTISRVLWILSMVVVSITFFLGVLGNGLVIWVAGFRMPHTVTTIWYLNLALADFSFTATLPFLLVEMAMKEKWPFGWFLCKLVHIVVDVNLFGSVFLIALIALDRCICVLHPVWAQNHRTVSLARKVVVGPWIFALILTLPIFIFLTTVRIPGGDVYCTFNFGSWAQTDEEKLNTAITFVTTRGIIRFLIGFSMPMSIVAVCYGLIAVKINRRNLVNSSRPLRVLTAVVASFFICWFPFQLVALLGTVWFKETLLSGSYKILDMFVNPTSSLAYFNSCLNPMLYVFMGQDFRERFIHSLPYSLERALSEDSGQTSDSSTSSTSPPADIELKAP
# EXPERIMENT_DESCRIPTION: Agonist activity at mouse FPR2 expressed in CHO cells assessed as reduction cAMP accumulation incubated for 1 hr by TR-FRET assay
# Type: cell-based
MEASURE_NAME: EC50 (nM)
Entry rule: numbers only, all in nM.

Request: Any idea what EC50 was measured for COc1cc(F)c([C@@H]2CNC(=O)[C@H]2NC(=O)Nc2ccccc2)c(F)c1 [BMS-986235] ?
Result: 0.5
